target: recombinant Factor VIIa (rFVIIa); experiment: BLI; Octet Red, Ni-NTA biosensors, 37 °C, 1000 rpm; association 180 sec, dissociation 10 min; 1:1 model, global fit; the legend of Figure 4b says rFVIIa was immobilised
Sequence (P08709 whole entry): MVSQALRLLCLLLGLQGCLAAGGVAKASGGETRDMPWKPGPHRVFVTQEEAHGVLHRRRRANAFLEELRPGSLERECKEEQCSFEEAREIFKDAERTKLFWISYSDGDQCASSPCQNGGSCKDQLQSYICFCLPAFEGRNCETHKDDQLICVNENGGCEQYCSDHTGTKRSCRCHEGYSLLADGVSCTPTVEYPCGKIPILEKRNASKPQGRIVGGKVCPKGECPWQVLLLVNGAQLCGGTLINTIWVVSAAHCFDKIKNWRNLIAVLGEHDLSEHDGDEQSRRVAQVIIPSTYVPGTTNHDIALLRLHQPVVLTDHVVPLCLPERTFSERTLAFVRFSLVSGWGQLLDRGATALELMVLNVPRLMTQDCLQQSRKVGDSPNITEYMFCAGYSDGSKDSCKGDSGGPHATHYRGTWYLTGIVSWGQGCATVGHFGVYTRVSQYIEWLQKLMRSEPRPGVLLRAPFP
measured.parameter: Kd (nM)
All answers are understood in nM, so give the number only.

Query: Consider the binder ALCDDPRVDRWYCQFVEG [E-76 peptide] . State its measured Kd.
Response: 6.2
